Values compiled from ChEMBL document CHEMBL4842350.

test: Volume of distribution at steady state in Beagle dog at 1 mg/kg/hr, iv measured upto 28 hrs by LC-MS/MS analysis; type: ADME, organism-based, Canis lupus familiaris; conditions: in vivo, read-out: Vdss
Measure: Vd (L/kg)
The answer is to be given in L/kg; state only the numeric part.

Notebook: COC[C@@H](C)n1c(C2CCOCC2)nc2cnc3cc(-c4c(C)noc4C)c(OC)cc3c21 , Vd read as 3.1

----------
Recorded log10 IC50 by entry
biological target: Bromodomain-containing protein 4 (Homo sapiens, UniProt O60885, Y390A); experiment: Displacement of Alexa Fluor 647 labelled ligand from recombinant human N-terminal 6His-tagged BRD4-BD1 Y390A mutant (1 to 477 residue) expressed in Escherichia coli incubated for 30 mins by TR-FRET assay
# values: log10(IC50), units µM

COCc1nc2cnc3cc(-c4c(C)noc4C)c(OC)cc3c2n1CC1CCOCC1	-1.10

Notebook: COc1cc2c(cc1-c1c(C)noc1C)ncc1[nH]c(=O)n(C(C)C)c12 , log10 IC50 read as 0.10

Notebook: COc1cc2c(cc1-c1c(C)noc1C)ncc1[nH]c(=O)n(CCN(C)C)c12 , log10 IC50 read as -0.10

Notebook: COCCNc1nc2cnc3cc(-c4c(C)noc4C)c(OC)cc3c2n1[C@H](C)c1ccccn1 , log10 IC50 read as -1.90

Notebook: COc1cc2c(cc1-c1c(C)noc1C)ncc1[nH]c(=O)n(C3CCOCC3)c12 , log10 IC50 read as 0.20

Notebook: COCC(C)n1c(C2CCOCC2)nc2cnc3cc(-c4c(C)noc4C)c(OC)cc3c21 (racemic) , log10 IC50 read as -1.00

Notebook: COc1cc2c(cc1-c1c(C)noc1C)ncc1[nH]c(=O)n(Cc3ccccn3)c12 , log10 IC50 read as -0.80

Notebook: COc1cc2c(cc1-c1c(C)noc1C)ncc1[nH]c(=O)n(C(C)C3CCOCC3)c12 (racemic) , log10 IC50 read as -0.80

Notebook: COc1cc2c(cc1-c1c(C)noc1C)ncc1[nH]c(=O)n(CC3CCCOC3)c12 (racemic) , log10 IC50 read as -0.60

Notebook: COc1cc2c(cc1-c1c(C)noc1C)ncc1nc(C3CCOCC3)n(Cc3ccccn3)c12 , log10 IC50 read as -1.20

Notebook: COc1cc2c(cc1-c1c(C)noc1C)ncc1[nH]c(=O)n(CC3CC3)c12 , log10 IC50 read as -0.20

----------
molecular target: Bromodomain-containing protein 4 (Homo sapiens); assay: Inhibition of BRD4 in human PBMC assessed as reduction in LPS-induced IL-6 secretion incubated for 18 to 24 hrs by MSD assay
Measure: IC50
Could you give the number and then its unit, please?

Here is how some compounds turned out for IC50.
COc1cc2c(cc1-c1c(C)noc1C)ncc1[nH]c(=O)n(CC3CCOC3)c12 (racemic)	3.98 µM
COc1cc2c(cc1-c1c(C)noc1C)ncc1[nH]c(=O)n(C(C)C)c12	3.16 µM
COc1cc2c(cc1-c1c(C)noc1C)ncc1nc(C)n(Cc3ccccn3)c12	0.0398 µM
CCCc1nc2cnc3cc(-c4c(C)noc4C)c(OC)cc3c2n1Cc1ccccn1	0.126 µM

Notebook: COc1cc2c(cc1-c1c(C)noc1C)ncc1nc(C3CCOCC3)n(CC3CC3)c12 , IC50 read as 0.316 µM
